# experiment: NCI Yeast Anticancer Drug Screen. Data for the sgs1 mgt1 strain (AID 161);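 further: 0% = growth of cultures given vehicle only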
# assay.context: S. cerevisiae sgs1 mgt1 strain, at 50.0 µM
About 79,000 compounds went through this panel and 15% of them were active in at least one assay; those are over-represented in the sample as a whole. The source made the active and inactive calls. No stated cut-off is given here; in the data, active means growth inhibition above about 70%; inactive means the rest.
In this exercise, the only acceptable responses are 1.0 = active, 0.0 = inactive

compound | assigned.category
O=[N+]([O-])c1ccc(S(=O)(=O)N/N=C/c2ccco2)cc1 | 0.0
Cc1ccc(CO)c(O)c1 | 0.0
CCN(CC)CCC(=O)O | 0.0
O=C(COc1ccc(Cl)cc1)Nc1nccs1 | 0.0
O=C1CC(c2ccc(Cl)cc2)C(=O)O1 (stereo unspecified) | 0.0

Lookup: What call does the record list for CCCCN1C(=O)C(CC(=O)OCC)SC1=S (stereo unspecified) ?
Found: 0.0

Lookup: What call does the record list for CCC1(C)NN=C2C(=CC=C3NNC(C)(CC)N32)n2cccc21 (stereo unspecified) ?
Found: 0.0

Lookup: What call does the record list for COC(=O)C1CCC(C(=O)OC)CC1 (stereo unspecified) ?
Found: 0.0

Lookup: What call does the record list for CSc1nc(NC2OC(CO)C(O)C(O)C2O)cc(=O)[nH]1 (stereo unspecified) ?
Found: 0.0

Lookup: What call does the record list for `Cc1cc([N+](=O)[O-])ccc1NC(=O)OC(C)C` ?
Found: 0.0

Lookup: What call does the record list for `CCOc1ccc(Nc2ccc3c(O)cc(S(=O)(=O)O)cc3c2)cc1` ?
Found: 0.0

Lookup: What call does the record list for `Cc1cccc2c(=O)[nH]c(=O)[nH]c12` ?
Found: 0.0

Lookup: What call does the record list for `Cc1ccccc1C(=O)OC1CCCCC1` ?
Found: 0.0

Lookup: What call does the record list for CCCCCCCC(CC#N)(CCCCC)CCCCCC (stereo unspecified) ?
Found: 0.0

Lookup: What call does the record list for CC(=O)OC1C(C)OC(n2cnc3c(=O)[nH]cnc32)C1OC(C)=O (stereo unspecified) ?
Found: 0.0

Lookup: What call does the record list for CC1=NC2c3c(-c4ccc(Cl)cc4)cn(-c4ccc(C)cc4)c3N=CN2N1 (stereo unspecified) ?
Found: 0.0

Lookup: What call does the record list for `CCCCCCSc1nc2c([nH]1)c(=O)n(C)c(=S)n2C` ?
Found: 0.0

Lookup: What call does the record list for CC12CCC(CC1C(=O)O)C2 (stereo unspecified) ?
Found: 0.0

Lookup: What call does the record list for Cc1ccccc1C(C#N)/C(=N/NC(N)=S)C(=O)Nc1c(C)cccc1C (stereo unspecified) ?
Found: 0.0

Lookup: What call does the record list for `c1ccc2c(c1)cnc1cc3c(cc12)ncc1ccccc13` ?
Found: 0.0

Lookup: What call does the record list for CS(=O)(=O)CC(O)(c1ccc(Cl)cc1)c1ccccn1 (stereo unspecified) ?
Found: 0.0

Lookup: What call does the record list for `N#CCc1ccccc1-c1ccccc1` ?
Found: 0.0

Lookup: What call does the record list for `Cc1ccc(OCC(=O)O)cc1C` ?
Found: 0.0

Lookup: What call does the record list for `CC(=O)OCc1cn(S(=O)(=O)c2ccc(C)cc2)cn1` ?
Found: 0.0

Lookup: What call does the record list for Cc1cccc2c1C1c3ccccc3C(=O)CC1CC2=O (stereo unspecified) ?
Found: 0.0

----------
Answer each item with its documented growth inhibition.
# experiment: NCI Yeast Anticancer Drug Screen. Data for the bub3 strain (AID 167)
# assay.context: S. cerevisiae bub3 mutant strain, at 50.0 µM, stronger effect = higher value
Compounds without any hit were thinned out: in the full panel of roughly 79,000, 15% have a hit.
Numbers only, in %.

molecule | readout.label | readout.units | assay.value
CC(=O)C1=C(C)Cn2c(=O)c3ccccc3c(=O)n2C1 | growth inhibition | % | -15.7

Report growth inhibition for every entry below.
1. CN(C)c1ccc(/C=N\NC(=S)NN2CCN(NC(=S)N/N=C\c3ccc(N(C)C)cc3)CC2)cc1
2. CC(=O)Nc1ccc2c(c1)Cc1c(F)cc(F)cc1-2

Found:
1.55
21.9

Report growth inhibition for every entry below.
1. CC(=O)Oc1cccc2c1C(=O)C1CC(O)C3(C=O)OC(C)(C)OC2(C)C13 (stereo not given)
2. CCCC(CCC(C)=O)[N+](=O)[O-] (stereo not given)
3. CCC(=O)c1nc(N)[nH]c1CC
4. Cc1ccc(S(=O)(=O)OCC(c2ccc(Cl)cc2)c2ccccc2Cl)cc1 (stereo not given)
5. O=C(O)C1CCN(C(=O)Cc2c3ccccc3cc3ccccc23)CC1
6. CO[C@@H]1C2C3c4ccccc4C(c4ccccc43)C2[C@H](OC)[C@H]2OC(c3ccccc3)O[C@H]21 (stereo not given in full)
7. O=c1c2c(-c3cc(-c4ccccc4)nc4[nH]n(-c5ccccc5)c(=O)c34)cc(-c3ccccc3)nc2[nH]n1-c1ccccc1

Found:
1. -3.45
2. 1
3. -3
4. -1.15
5. -6.85
6. 2.15
7. 4.85
